- test.system: Cholinesterase (Equus caballus, UniProt P81908)
- Sequence (P81908 whole entry): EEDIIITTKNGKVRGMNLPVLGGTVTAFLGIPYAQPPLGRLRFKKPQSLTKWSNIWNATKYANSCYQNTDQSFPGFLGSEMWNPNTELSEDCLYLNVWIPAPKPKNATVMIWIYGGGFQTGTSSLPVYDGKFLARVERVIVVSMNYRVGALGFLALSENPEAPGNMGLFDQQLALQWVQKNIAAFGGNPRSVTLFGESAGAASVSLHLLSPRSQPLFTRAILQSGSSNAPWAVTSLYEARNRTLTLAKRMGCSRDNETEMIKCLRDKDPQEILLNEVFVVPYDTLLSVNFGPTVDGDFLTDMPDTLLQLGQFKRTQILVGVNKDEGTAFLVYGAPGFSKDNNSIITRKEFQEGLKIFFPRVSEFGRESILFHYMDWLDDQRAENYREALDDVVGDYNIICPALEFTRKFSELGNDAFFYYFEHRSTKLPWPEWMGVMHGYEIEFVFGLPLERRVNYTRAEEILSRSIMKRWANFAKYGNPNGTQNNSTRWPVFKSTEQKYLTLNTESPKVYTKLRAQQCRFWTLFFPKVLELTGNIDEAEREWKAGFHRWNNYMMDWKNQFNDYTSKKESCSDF
endpoint.label: IC50 (µM)
Please state the figure in µM; there is no need to write the unit.

Below, each entry is followed by its recorded IC50 result.
CCN(CC)CC(=O)Nc1ccc2nc3c4[nH]c5ccccc5c4ccn3c(=O)c2c1; 11.4
CCN(CC)CCC(=O)Nc1ccc2nc3n(c(=O)c2c1)CCc1c-3[nH]c2ccccc12; 2.85
O=C(CN1CCCCC1)Nc1ccc2nc3n(c(=O)c2c1)CCc1c-3[nH]c2ccccc12; 33
O=C(CN1CCCC1)Nc1ccc2ncn(CCc3c[nH]c4ccccc34)c(=O)c2c1; 25.9
O=C(CN1CCCC1)Nc1ccc2nc3c4[nH]c5ccccc5c4ccn3c(=O)c2c1; 0.428

Q: Return IC50 for the following compound: O=C(CCN1CCCCC1)Nc1ccc2nc3n(c(=O)c2c1)CCc1c-3[nH]c2ccccc12
Result: 2.11

Q: Return IC50 for the following compound: CCN(CC)CC(=O)Nc1ccc2nc3n(c(=O)c2c1)CCc1c-3[nH]c2ccccc12
Result: 17.6

====

# collection of IC50 values tested on Cholinesterase (Equus caballus)
Please state the figure in µM; there is no need to write the unit.

O=C(CN1CCCC1)Nc1ccc2nc3n(c(=O)c2c1)CCc1c-3[nH]c2ccccc12; 0.696

Q: Enter IC50 (test system Cholinesterase (Equus caballus)) for O=C(CN1CCCCC1)Nc1ccc2ncn(CCc3c[nH]c4ccccc34)c(=O)c2c1
Result: 13

Q: Enter IC50 (test system Cholinesterase (Equus caballus)) for CCN(CC)CC(=O)Nc1ccc2ncn(CCc3c[nH]c4ccccc34)c(=O)c2c1
Result: 41.6

Q: Enter IC50 (test system Cholinesterase (Equus caballus)) for O=C(CCN1CCCC1)Nc1ccc2nc3n(c(=O)c2c1)CCc1c-3[nH]c2ccccc12
Result: 0.845

Q: Enter IC50 (test system Cholinesterase (Equus caballus)) for O=C(CN1CCCCC1)Nc1ccc2nc3c4[nH]c5ccccc5c4ccn3c(=O)c2c1
Result: 5.43

====

- test.system: Acetylcholinesterase (Electrophorus electricus, UniProt O42275)
- Sequence (O42275 whole entry): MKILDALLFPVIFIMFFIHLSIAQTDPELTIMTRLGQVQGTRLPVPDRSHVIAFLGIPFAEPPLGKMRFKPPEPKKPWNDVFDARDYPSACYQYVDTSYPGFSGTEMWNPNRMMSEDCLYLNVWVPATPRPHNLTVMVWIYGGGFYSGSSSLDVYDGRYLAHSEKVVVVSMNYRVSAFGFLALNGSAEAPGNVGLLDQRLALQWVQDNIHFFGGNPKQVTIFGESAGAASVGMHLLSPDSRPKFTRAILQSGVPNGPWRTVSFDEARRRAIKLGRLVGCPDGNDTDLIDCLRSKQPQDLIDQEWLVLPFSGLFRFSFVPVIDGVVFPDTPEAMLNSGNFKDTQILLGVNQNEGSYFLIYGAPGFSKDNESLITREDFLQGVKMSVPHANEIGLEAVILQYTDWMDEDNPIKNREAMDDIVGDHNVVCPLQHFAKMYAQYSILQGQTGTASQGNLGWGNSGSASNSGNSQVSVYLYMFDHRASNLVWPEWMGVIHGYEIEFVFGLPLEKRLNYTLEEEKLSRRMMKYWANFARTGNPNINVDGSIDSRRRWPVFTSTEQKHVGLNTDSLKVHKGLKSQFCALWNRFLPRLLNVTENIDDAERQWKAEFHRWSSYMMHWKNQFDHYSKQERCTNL
endpoint.label: pIC50
In textbook form, pIC50 equals minus log to base ten of the concentration in mol/L.

O=C(CN1CCCC1)Nc1ccc2nc3c4[nH]c5ccccc5c4ccn3c(=O)c2c1; 7.63
CCN(CC)CCC(=O)Nc1ccc2nc3n(c(=O)c2c1)CCc1c-3[nH]c2ccccc12; 7.10
O=C(CN1CCCC1)Nc1ccc2nc3n(c(=O)c2c1)CCc1c-3[nH]c2ccccc12; 6.88
CCN(CC)CC(=O)Nc1ccc2nc3c4[nH]c5ccccc5c4ccn3c(=O)c2c1; 7.24

Q: Enter pIC50 (test system Acetylcholinesterase (Electrophorus electricus, UniProt O42275)) for O=C(CN1CCCC1)Nc1ccc2ncn(CCc3c[nH]c4ccccc34)c(=O)c2c1
Result: 5.39

====

- test.system: Acetylcholinesterase (Electrophorus electricus, UniProt O42275)
Friendly reminder: IC50 below 100 nM is true, at or above is false.

Study these solved cases before continuing.
O=C(CCN1CCCC1)Nc1ccc2nc3n(c(=O)c2c1)CCc1c-3[nH]c2ccccc12; true
CCN(CC)CC(=O)Nc1ccc2ncn(CCc3c[nH]c4ccccc34)c(=O)c2c1; false
O=C(CN1CCCCC1)Nc1ccc2ncn(CCc3c[nH]c4ccccc34)c(=O)c2c1; false

Q: is_below(IC50, 100 nM) for O=C(CN1CCCCC1)Nc1ccc2nc3c4[nH]c5ccccc5c4ccn3c(=O)c2c1 ?
Result: true

Q: is_below(IC50, 100 nM) for O=C(CN1CCCCC1)Nc1ccc2nc3n(c(=O)c2c1)CCc1c-3[nH]c2ccccc12 ?
Result: false

Q: is_below(IC50, 100 nM) for O=C(CCN1CCCCC1)Nc1ccc2nc3n(c(=O)c2c1)CCc1c-3[nH]c2ccccc12 ?
Result: true

Q: is_below(IC50, 100 nM) for CCN(CC)CC(=O)Nc1ccc2nc3n(c(=O)c2c1)CCc1c-3[nH]c2ccccc12 ?
Result: false
